Measured values drawn from ChEMBL document CHEMBL4229368 for this set.

# Test system: Staphylococcus aureus
# assay: Bactericidal activity against wild type Staphylococcus aureus SA1199 at 30 ug/ml after 18 to 24 hrs by broth microdilution method
# Format: ADME, organism-based
# measurement-conditions: in vitro
experimental-readout: Activity

structure-string: CC(C)[C@H](N)CN(CCc1ccccc1)C(=O)/C=C/c1ccccc1.Cl
experimental-readout: Activity
experimental-result: Non-Toxic

structure-string: CC(C)[C@H](N)CN(CCc1c[nH]c2ccccc12)C(=O)/C=C/c1ccccc1.Cl
experimental-readout: Activity
experimental-result: Non-Toxic

structure-string: Cl.NCCN(CCc1ccccc1)C(=O)/C=C/c1ccccc1
experimental-readout: Activity
experimental-result: Non-Toxic

structure-string: Cl.NCCN(CCc1c[nH]c2ccccc12)C(=O)/C=C/c1ccccc1
experimental-readout: Activity
experimental-result: Non-Toxic
